This listing pairs compounds with measured growth.
system: BT-549 breast; test: NCI-60 one-dose screen, 48 h (100 = growth as untreated, 0 = no growth, -100 = all killed); settings: 10 µM
About 83,000 compounds went through this panel and 20% of them were active in at least one assay; those are over-represented in the sample as a whole. Calls of active or inactive are those of the source. Rule for the calls: active = growth percent below 10; inactive = the rest.

These solved cases illustrate the format of a correct answer.
>>> reported_measurement("COc1ccc(C2=NN(c3ccccc3)C(c3sc(N(CCCl)CCCl)nc3Cl)C2)cc1 (configuration not stated)")
"108% (inactive)"
>>> reported_measurement("O=C(CCl)NCNC(=O)CCl")
"86.7% (inactive)"

Consider the compound Cc1ccc(C[As+](c2ccccc2)(c2ccccc2)c2ccccc2)cc1 and give its measured growth.
-4.76% (active)

From: PubChem BioAssay (NCI)
